systemUnderTest: human recombinant lysosomal α-glucosidase GAA (Myozyme) (Homo sapiens, UniProt P10253)
Construct: purchased Genzyme
experimentSummary: fluorogenic substrate (4MU-α-D-glucopyranoside) assay on rhGAA
Type: biochemical
testConditions: Table S2; 4-MU alpha glucoside substrate; listed as 20; read-out: IC50 on rhGAA
valueType: IC50 (nM)
Kindly provide the numeric value in nM only, without the unit symbol.

Value of measured IC50 for the entry CCCCCOCCCCCN1C[C@H](O)[C@@H](O)[C@H](O)[C@H]1CO [#ID 20] : 330

----------
systemUnderTest: ER α-glucosidase GANAB (from Pompe disease Fibroblast lysates) (Homo sapiens, UniProt Q14697)
Construct: Cellular homogenates of Pompe fibroblasts (1 mg mL^−1) were used as protein source for GANAB; endogenous in cells; host or cells: Pompe disease fibroblasts (homogenate)
Sequence (Q14697 29-944): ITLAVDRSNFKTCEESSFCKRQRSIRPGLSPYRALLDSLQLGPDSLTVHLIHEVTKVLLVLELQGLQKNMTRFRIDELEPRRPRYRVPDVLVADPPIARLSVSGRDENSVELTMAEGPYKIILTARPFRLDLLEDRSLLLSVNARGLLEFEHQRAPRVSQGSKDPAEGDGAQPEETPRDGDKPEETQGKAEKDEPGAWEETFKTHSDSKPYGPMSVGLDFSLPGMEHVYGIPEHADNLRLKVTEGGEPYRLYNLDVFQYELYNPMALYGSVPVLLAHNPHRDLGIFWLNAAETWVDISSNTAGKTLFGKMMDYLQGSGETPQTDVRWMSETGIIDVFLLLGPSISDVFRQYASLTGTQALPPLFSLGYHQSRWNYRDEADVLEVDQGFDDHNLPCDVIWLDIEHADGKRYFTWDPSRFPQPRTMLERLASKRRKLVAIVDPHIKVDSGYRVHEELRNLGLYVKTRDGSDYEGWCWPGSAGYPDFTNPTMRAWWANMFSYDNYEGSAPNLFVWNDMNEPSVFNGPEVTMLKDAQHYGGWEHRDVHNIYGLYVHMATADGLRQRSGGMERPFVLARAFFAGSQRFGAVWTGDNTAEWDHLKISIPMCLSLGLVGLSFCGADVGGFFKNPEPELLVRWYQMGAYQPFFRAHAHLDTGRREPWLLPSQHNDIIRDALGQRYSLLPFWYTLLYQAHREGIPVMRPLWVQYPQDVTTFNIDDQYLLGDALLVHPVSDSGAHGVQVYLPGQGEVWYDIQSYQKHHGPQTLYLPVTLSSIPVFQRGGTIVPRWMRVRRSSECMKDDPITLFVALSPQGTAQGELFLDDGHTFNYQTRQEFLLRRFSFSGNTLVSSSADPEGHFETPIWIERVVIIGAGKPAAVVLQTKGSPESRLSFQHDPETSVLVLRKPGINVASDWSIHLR
Sequence (P14314 15-528 partner): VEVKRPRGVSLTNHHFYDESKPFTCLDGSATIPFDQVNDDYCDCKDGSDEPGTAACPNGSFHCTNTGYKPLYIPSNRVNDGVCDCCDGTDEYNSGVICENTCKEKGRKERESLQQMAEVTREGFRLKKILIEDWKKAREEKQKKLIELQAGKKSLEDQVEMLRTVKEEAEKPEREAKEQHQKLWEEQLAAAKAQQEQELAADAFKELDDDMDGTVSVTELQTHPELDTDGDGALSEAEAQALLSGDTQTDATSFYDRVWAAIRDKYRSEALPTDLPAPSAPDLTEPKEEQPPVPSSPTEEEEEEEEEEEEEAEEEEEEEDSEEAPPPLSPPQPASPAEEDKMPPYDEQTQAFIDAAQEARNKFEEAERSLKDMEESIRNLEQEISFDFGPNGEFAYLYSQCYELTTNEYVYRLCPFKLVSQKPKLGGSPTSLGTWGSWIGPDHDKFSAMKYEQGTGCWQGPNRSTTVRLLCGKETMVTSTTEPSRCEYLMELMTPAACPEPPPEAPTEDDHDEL
experimentSummary: fluorogenic substrate (4MU-α-D-glucopyranoside) assay on GANAB in Pompe fibroblast homogenates;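 further: inhibitor preincubated 30 min at 37 °C with homogenate, then GANAB activity read after 2 h with 3.0 mM fluorogenic substrate in McIlvaine buffer containing 0.1% BSA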
Format: biochemical
testConditions: Table S2; 4-MU alpha glucoside substrate; listed as 20; read-out: IC50 on GANAB
valueType: pIC50
Keep it numeric: pIC50 is minus log10 of the concentration in mol/L.

Value of measured pIC50 for the entry `CCCCCOCCCCCN1C[C@H](O)[C@@H](O)[C@H](O)[C@H]1CO` : 4.72
